# credit: patent US20170165337A1

biological target: T1, HLA-A*02:01 (human); experiment: UV peptide-exchange ELISA
T1 construct: MHC class I monomer of the UV-ligand exchange assay; also called peptide-receptive MHC molecules; MHC class I
recorded_metric: peptide exchange yield

Guide cases for peptide exchange yield, answers given:
{"binder": "YVDDVFLRV", "peptide exchange yield": "≥ 75%"}
{"binder": "LLFDKLYLL", "peptide exchange yield": "50 to 75%"}
{"binder": "ALWAGLLTL", "peptide exchange yield": "50 to 75%"}
{"binder": "FIMEGGAMV", "peptide exchange yield": "50 to 75%"}
{"binder": "ALPEILFAKV", "peptide exchange yield": "50 to 75%"}

Give me peptide exchange yield for each of these binders, listed below.
1. FILTHVDQL
2. VMDPTKILI
3. LAIVPVNTL
4. VVDGMPPGV

Result:
1: ≥ 75%; 2: ≥ 75%; 3: 10 to 20%; 4: 50 to 75%
